Give measured TGI for each item. Keep answers brief.
- Tested on: NCI/ADR-RES ovarian
- Experiment Summary: NCI tumour cell line growth inhibition, 48 h
One number for each entry, in µM.

[
  {
    "Compound": "O=C(NC1C/C(=N/O)c2c(Br)sc(Br)c21)C(F)(F)F (stereo not given)",
    "Assay System": "NCI/ADR-RES ovarian",
    "Value Unit": "µM",
    "TGI": 88.6
  }
]

Okay, here is my list. What is TGI for each of these?
1. Fc1ccc(C(OCCN2CCC3CCC(C2)N3C/C=C/c2cccs2)c2ccc(F)cc2)cc1 (stereo not given)
2. Cc1c(C(N)=O)sc2nc(C)n(/N=c3\scc(-c4ccccc4)n3Cc3ccccc3)c(=O)c12

[19.7, 29.2]
